# Test system: Human alphaherpesvirus 1
# Protocol summary: Compound was tested for antiviral activity in HeLa Cell cultures, against herpes simplex virus type 1 (HSV-1), cytopathic effect induced by the virus (CPE)
# Format: functional
Measured attribute: CPE50 (µg/mL)
Numbers only, in µg/mL.

Molecule	Measured attribute	Assay value
Cc1c(C(N)=O)ncn1C1O[C@H](CO)[C@@H](O)[C@H]1O (stereo not given in full)	CPE50	75

q: Param readout = CPE50; param system = Human alphaherpesvirus 1; param query = NC(=O)c1ncn([C@@H]2O[C@H](CO)[C@@H](O)[C@H]2O)n1 ; response: value
a: 75

====

# Protocol summary: Compound was tested for antiviral activity in HeLa Cell cultures, against herpes simplex virus type 1 (HSV-1)
# Type: organism-based
# Condition description: human alphaherpesvirus 1, HeLa cell cultures; read-out: Tox50
Measured attribute: CC50

Observe how each entry below is paired with its result.
Molecule	CC50
Cc1c(C(N)=O)ncn1[C@@H]1C[C@H](O)[C@@H](CO)O1	> 200 µg/mL
Cc1[nH]cnc1C(N)=O	> 200 µg/mL
Cc1c(C(N)=O)ncn1C1O[C@H](CO)[C@@H](O)[C@H]1O (stereo not given in full)	> 400 µg/mL

// input: 2 molecules below; output: CC50 for each
1. Cc1c(C(N)=O)ncn1COCCO
2. NC(=O)c1ncn([C@@H]2O[C@H](CO)[C@@H](O)[C@H]2O)n1

a:
> 200 µg/mL
400 µg/mL

====

# Protocol summary: Compound was tested for antiviral activity in HeLa Cell cultures against herpes simplex virus type 1 (HSV-1)
# Assay type: organism-based
# Condition description: human alphaherpesvirus 1, HeLa cell cultures; read-out: Tox50
Measured attribute: CC50 (µg/mL)
Answers are plain numbers, in µg/mL.

q: Requested read-out: CC50. Entry: Cc1c(C(N)=O)ncn1[C@H]1C[C@H](O)[C@@H](CO)O1
a: 300

====

Can you tell me CC50 for the items I'm about to list?
# Protocol summary: Compound was tested for antiviral activity in HeLa Cell cultures, against vesicular stomatitis virus (VSV)
# Format: ADME, organism-based
# Condition description: read-out: Tox50

Compound	CC50
Cc1c(C(N)=O)ncn1C1O[C@H](CO)[C@@H](O)[C@H]1O (some centres undefined)	> 400 µg/mL
Cc1c(C(N)=O)ncn1COCCO	> 200 µg/mL
NC(=O)c1ncn([C@@H]2O[C@H](CO)[C@@H](O)[C@H]2O)n1	400 µg/mL

q: Which CC50 is reported for this compound? Cc1c(C(N)=O)ncn1[C@@H]1C[C@H](O)[C@@H](CO)O1
a: > 400 µg/mL

====

# Protocol summary: Compound was tested for antiviral activity in HeLa Cell cultures against vesicular stomatitis virus (VSV)
# Assay type: ADME, organism-based
# Condition description: read-out: Tox50
Measured attribute: CC50

q: Which measured CC50 value corresponds to Cc1c(C(N)=O)ncn1[C@H]1C[C@H](O)[C@@H](CO)O1 ?
a: > 400 µg/mL

====

For each of the compounds below, state its CPE50.
# Tested on: Human alphaherpesvirus 1
# Protocol summary: Compound was tested for antiviral activity in HeLa Cell cultures, against herpes simplex virus type 1 (HSV-1), cytopathic effect induced by the virus (CPE)
# Format: functional

Example entries and their recorded answers appear below.
Compound smiles	Assay value
Cc1c(C(N)=O)ncn1COCCO	>200 µg/mL
Cc1c(C(N)=O)ncn1[C@@H]1C[C@H](O)[C@@H](CO)O1	>200 µg/mL

Next:
q: Bench note: what CPE50 did Cc1[nH]cnc1C(N)=O show?
a: >200 µg/mL
